Reported Kcat by item:
# ASSAY REMARKS: Standard protocol for determination of kcat and KM (continuous spectrophotometric assay, Acetyl CoA hydrolysis at 235 nm)
# Assay type: biochemical
# RUN CONDITIONS: purified protein; about 23° C.; 20 mM HEPES pH 6.8, 10% ethylene glycol, 0.2 mM acetyl CoA
# Protocol: KM was calculated from the initial reaction rates obtained from concentrations of glyphosate ranging from 0.125 to 10 mM, using the Lineweaver-Burke transformation of the Michaelis-Menten equation. kcat/KM was determined by dividing the value determined for kcat by the value determined for KM. Using this methodology, kinetic parameters for a number of GAT polypeptides exemplified herein were determined. […]
// note: answer is a bare numeric in s⁻¹

{"MOLECULE": "SEQ ID NO: 343: GAT polypeptide (protein, 17C12, GAT polypeptide) MIEVKPISAEDTYEIRHRILRPNQPLEACMYETDLLGGAFHLGGYYQGKLISIASFHQAEHSELEGQKQYQLRGMATLEGYREQKAGSTLIRHAEELLRKKGADLLWCNARTSVSGYYEKLGFSEQGEVYDIPPIGPHILMYKKLT", "UNITS OF MEASURE": "s⁻¹", "OBSERVED VALUE": 0.0533}
{"MOLECULE": "SEQ ID NO: 371: GAT polypeptide (protein, 4B_18F11, GAT polypeptide) MIEVNPINAEDTYEIRHRILRPNQPLEACMYETDLLGGTSHLGGYYRGKLISIASFHNAEHSELDGQKQYQLRGMATLEGYREQKAGSTLIRHAEELLRKKGADLLWCNARTSVSGYYEKLGFSEQGEVYDIPPIGPHISMYKKLT", "UNITS OF MEASURE": "s⁻¹", "OBSERVED VALUE": 0.243}
{"MOLECULE": "SEQ ID NO: 335: GAT polypeptide (protein, 15_4F11, GAT polypeptide) MIEVKPINAEDTYKIRHRILRPNQPLEACMYETDLLGGTFHLGGYYRGKLVSIASFNQAEHPELEGQKQYQLRGMATLEGYREQKAGSTLIRHAEALLRKKGADLLWCNARTSASGYYKKLGFSEQGEVYDIPPTGPHILMYKKLT", "UNITS OF MEASURE": "s⁻¹", "OBSERVED VALUE": 1.34}
{"MOLECULE": "SEQ ID NO: 462: GAT polypeptide (protein, 11_3C3, GAT polypeptide) MIEVKPINAEDTYELRHKILRPNQPIEACMYESDLLRGALHLGGYYRGKLISIASFHQAEHSELQGQKQYQLRGMATLEGYREQKAGSSLIKHAEEILRKRGADLLWCNARTSASGYYKKLGFSEQGEVFDTPPVGPHILMYKRIT", "UNITS OF MEASURE": "s⁻¹", "OBSERVED VALUE": 3.567}
{"MOLECULE": "SEQ ID NO: 412: GAT polypeptide (protein, 6_8H3, GAT polypeptide) MIEVKPINAEDTYEIRHRILRPNQPLEACMYETDLLGGTFHLGGYYRGKLISIASFHQAEHPELEGQKQYQLRGMATLEGYREQKAGSTLIRHAEELLRKKGADLLWCNARTSASGYYKKLGFSEQGGVYDIPPVGPHILMYKKLT", "UNITS OF MEASURE": "s⁻¹", "OBSERVED VALUE": 0.745}
{"MOLECULE": "SEQ ID NO: 268: GAT polypeptide (protein, CHIMERA, GAT polypeptide) MIEVKPINAEDTYEIRHRILRPNQPLEACMYETDLLRGAFHLGGYYRGKLISIASFHQAEHSELEGQKQYQLRGMATLEGYREQKAGSTLIRHAEELLRKKGADLLWCNARTSASGYYKKLGFSEQGEVYDTPPVGPHILMYKKLT", "UNITS OF MEASURE": "s⁻¹", "OBSERVED VALUE": 2.59}
{"MOLECULE": "SEQ ID NO: 422: GAT polypeptide (protein, 9_13F1, GAT polypeptide) MIEAKPINAEDTYEIRHRILRPNQPLEACMYETDLLGGTFHLGGYYRGKLVSIASFHQAEHTELEGQKQYQLRGMATLEEYREQKAGSTLIRHAEELLRKKGADLLWCNARTSASGYYKKLGFSEQGEVYDIPPVGPHILMYKKLT", "UNITS OF MEASURE": "s⁻¹", "OBSERVED VALUE": 0.527}
{"MOLECULE": "SEQ ID NO: 479: GAT polypeptide (protein, 1_3H2, GAT polypeptide) MIEVKPINAEDTYELRHRILRPNQPIEACMYETDLLRGAFHLGGYYRGQLISIASFHKAEHSELQGQKQYQLRGMATLEGYREQKAGSTLIKHAEQLLREKGADMLWCNARTSAAGYYKRLGFSEQGEVFDTPPVGPHILMYKKLT", "UNITS OF MEASURE": "s⁻¹", "OBSERVED VALUE": 2.13}

Quick one: Kcat for SEQ ID NO: 328: GAT polypeptide (protein, 15_11H3, GAT polypeptide) MIEVKPINAEDTYEIRHRILRPNQPLEACKYETDLLRGAFHLGGYYRGKLISIASFHQAEHPELEGQKQYQLRGMATLEGYREQKAGSTLIRHAEALLRKKGADLLWCNARTSASGYYKKLGFSEQGEVYDIPPTGPHILMYKKLT ?
1.03

Quick one: Kcat for SEQ ID NO: 464: GAT polypeptide (protein, 11_3D6, GAT polypeptide) MIEVKPINAEDTYELRHRILRPNQPIEVCMYETDLLRGAFHLGGFYRGKLISIASFHQAEHSDLQGQKQYQLRGMATLEGYREQKAGSSLIKHAEQILRKRGADLLWCNARTSASGYYKKLGFSEQGEVFDTPPVGPHILMYKRLT ?
0.922

Quick one: Kcat for SEQ ID NO: 377: GAT polypeptide (protein, 4B_6D8, GAT polypeptide) MIEVKPINAEDTYEIRHRILRPNQPLEACKYETDLLGGTFHLGGYYRGKLISIASFHQAEHSELEGQKQYQLRGMATLEGYREQKAGSTLIRHAEELLRKKGADLLWCNARTSASGYYKKLGFSEHGEVYDIPPIGPHILMYKKLT ?
0.378

Quick one: Kcat for SEQ ID NO: 467: GAT polypeptide (protein, 1_1H2, GAT polypeptide) MIEVKPINAEDTYELRHRILRPNQPLEACMYESDLLRGSFHLGGFYRGKLISIASFHQAEHSELEGQKQYQLRGMATLEGFREQKAGSSLIRHAEEILRKRGADLLWCNARTTAAGYYKKLGFSEQGEIFDTPPVGPHILMYKRIT ?
2.73
